- Test system: BT-549 breast
- protocol.description: NCI tumour cell line growth inhibition, 48 h
Where a SMILES comes first, the peptide text is derived from it. [ ]: non-standard residue; d: D form. The star is where a group is joined. Bn2Val = CC(C)[C@@H](C(=O)*)N(Cc1ccccc1)Cc1ccccc1; NH(4-F-benzyl) = Fc1ccc(CN*)cc1; NMeV = CN[C@H](C(=O)O)C(C)C; dNMeA = CN[C@H](C)C(=O)O
recorded.endpoint: TGI

| molecule | recorded.endpoint | recorded.value |
| --- | --- | --- |
| CC(C)[C@H](NC(=O)[C@H](C(C)C)N(Cc1ccccc1)Cc1ccccc1)C(=O)N(C)[C@H](C(=O)N1CCC[C@H]1C(=O)N(C)[C@H](C)C(=O)NCc1ccc(F)cc1)C(C)C (Bn2Val-V[NMeV]P[dNMeA]-{NH(4-F-benzyl)}) | TGI | 19.1 µM |
| CCOC(=O)c1ccc2c(c1)c1c(C)c3cnccc3c(C)c1n2C | TGI | 1.88 µM |
| Cc1ccc(-c2c(C#N)c(-c3ccccc3)c(C#N)c(=O)n2NS(=O)(=O)c2ccc(C)cc2)cc1 | TGI | > 100 µM |
| CCN(CC)S(=O)(=O)c1ccc2nc(NC(=O)OC)[nH]c2c1 | TGI | > 100 µM |
| CC(C1CCCC1=O)C1CCCC1=O (stereo not given) | TGI | > 100 µM |
| COc1ccc(C2=Nn3c(nnc3-c3ccccc3)S/C2=C\c2ccc(-c3ccc([N+](=O)[O-])cc3)o2)cc1 | TGI | > 100 µM |
| Cc1cc2c(cc1C)[n+]([O-])c(NCCCN(C)C)c(C#N)[n+]2[O-] | TGI | > 100 µM |
| CCCCCC(=O)n1[nH]c(=O)n(-c2ccc(OC)cc2)c1=O | TGI | > 100 µM |
| O=C(OC1C=C=CS(=O)(=O)CC#C/C=C\1)c1cnc2ccccc2n1 (stereo not given) | TGI | > 100 µM |
| COc1ccc(/C(COc2ccc3c(c2)oc(=O)c2cc(OC)ccc23)=N/O)cc1 | TGI | > 100 µM |
| CC1(C)C2CCC1(C)[C@H](O)[C@H]2Nc1cc(C(F)(F)F)cc(C(F)(F)F)c1 (stereo not given in full) | TGI | 8.31 µM |
| COc1ccc(-c2c3ccccc3c(-c3ccc(OCCBr)cc3)c3ccccc23)cc1 | TGI | > 100 µM |
| O=S(=O)(c1ccccc1)[C@H]1[C@@H]2O[C@@H]2C[C@@H]1O | TGI | > 100 µM |
| COc1cc(/C=C2/SC(c3ccccc3)N(c3cc(Cl)ccc3Cl)C2=O)cc(OC)c1OC (stereo not given) | TGI | > 100 µM |
| C=CCSSC1N=CNc2nc[nH]c21 (stereo not given) | TGI | > 76.4 µM |
| CCOC(=O)Nn1cnnc1C | TGI | > 100 µM |
| COC(=O)C1=C(OC(=O)/C(=C/c2ccccc2)c2ccccc2)C(C(=O)OC)[C@@]2(O)[C@@H](C(=O)OC)[C@H](C)C[C@@H]1[C@@H]2C(=O)OC (stereo not given in full) | TGI | > 100 µM |
| CCOC(=O)Nc1nc2cc(OC)c(OC)c(OC)c2s1 | TGI | > 100 µM |
| O=C1C=CC(=O)C(c2cc(-c3ccc(Cl)cc3)nn2-c2ccccc2)=C1 | TGI | 99.6 µM |
| CC(C)OC(=O)Nc1ccc(-c2nc(-c3cccc(OCCN4CCOCC4)c3)c(-c3ccnc(Br)c3)[nH]2)cc1 | TGI | > 100 µM |
| O=C(O)c1ccc(C=C2Sc3ccccc3S2)cc1 | TGI | > 100 µM |
| c1ccc2c(c1)CN1CCCC1CN2 (stereo not given) | TGI | > 100 µM |
| CC(C)=C1C(=O)c2c(Cl)sc(Cl)c2C1=O | TGI | 42.9 µM |
| Cc1ccc(C2(C)CC/C(=N/N=C3/CCC(C)(c4ccc(C)c(C)c4)c4cc(C)c(C)cc43)c3cc(C)c(C)cc32)cc1C (stereo not given) | TGI | > 100 µM |
| CCOC(=O)Cc1cc(=O)oc2cc(O)ccc12 | TGI | > 100 µM |
| CC1=NN(C2=NS(=O)(=O)c3ccccc3N2C)C(=O)C1 | TGI | > 100 µM |
| O=C(/C=C/c1cccc(O)c1)c1cccc(-n2cc(-c3ccc(Cl)cc3)[nH]c2=O)c1 | TGI | 3.72 µM |
| CCCCCc1cccc(=O)o1 | TGI | > 100 µM |
| COc1cc2c(cc1OC)C1c3ccccc3CCCN1CC2 (stereo not given) | TGI | > 100 µM |
| COc1cc(/C=C2\N=C(c3ccccc3)N(c3cc4cc(Sc5ccccc5)ccc4[nH]3)C2=O)cc(OC)c1OC | TGI | 31.6 µM |
| CC(=O)Nc1cccc(C#Cc2cncnc2Nc2ccc(OCc3cccc(F)c3)c(Cl)c2)n1 | TGI | > 25 µM |
| CC(C)(C)N1C(=O)N=[N+](/C(=C(\c2ccccc2)n2nc([O-])n(C(C)(C)C)c2=O)c2ccccc2)C1=O | TGI | > 100 µM |
| C#Cc1nc(N)c2ncn(C3OC(COS(N)(=O)=O)C(O)C3O)c2n1 (stereo not given) | TGI | 0.349 µM |
| CCOC(=O)C(NC(=O)c1ccccc1)(Nc1cc(C)on1)C(F)(F)F (stereo not given) | TGI | > 100 µM |
| O=C(CC(=O)Nc1ccc(C(=O)O)cc1)Nc1ccc(C(=O)O)cc1 | TGI | > 100 µM |
| C=C1CCC(O)C/C1=C/C=C1\CCCC2(C)C1CCC2C(C)CCCC(C)C (stereo not given) | TGI | 37.4 µM |
| O=c1ccn(C2OC(CN(O)CCC3C(O)C(CO)OC3n3ccc(=O)[nH]c3=O)C(O)C2O)c(=O)[nH]1 (stereo not given) | TGI | > 100 µM |
| CC#CC#Cc1cccc(=O)o1 | TGI | 10.1 µM |
| COc1cc2c3c(c1O)N=NC=3CCN=2 | TGI | 31.7 µM |
| Cc1ccc2ccc(O)cc2c1 | TGI | 99.4 µM |
